- Tested on: β-glucosidase (SEQ ID NO: 1)
- protocol: Disaccharide production from glucose by beta-glucosidase with added divalent metal ion
- Format: biochemical, Trichoderma reesei
- conditionDescription: standing period 7 days; 1 mM ion; 60° C.
valueKind: Concentration (g/L) Isomaltose

## Input Query: Concentration (g/L) Isomaltose; subject: [Mg+2] [Mg^2+, magnesium ion (Mg^2+)]
## Output 6.7

## Input Query: Concentration (g/L) Isomaltose; subject: [Mn+2] [Mn^2+, manganese ion (Mn^2+)]
## Output 8.6

## Input Query: Concentration (g/L) Isomaltose; subject: [Zn+2] [Zn^2+, zinc ion (Zn^2+)]
## Output 7.3

## Input Query: Concentration (g/L) Isomaltose; subject: [Cu+2] [Cu^2+, copper ion (Cu^2+)]
## Output 8

====

- Test system: β-glucosidase (SEQ ID NO: 1)
- protocol: Disaccharide production from glucose by beta-glucosidase with added divalent metal ion
- Type: biochemical, Trichoderma reesei
- conditionDescription: standing period 14 days; 1 mM ion; 60° C.
valueKind: Concentration (g/L) Sophorose

## Input Query: Concentration (g/L) Sophorose; subject: [Cu+2]
## Output 17

## Input Query: Concentration (g/L) Sophorose; subject: [Mn+2]
## Output 16.5

## Input Query: Concentration (g/L) Sophorose; subject: [Mg+2]
## Output 17.4

## Input Query: Concentration (g/L) Sophorose; subject: [Zn+2] [Zn^2+, zinc ion (Zn^2+)]
## Output 16.4

====

- Test system: β-glucosidase (SEQ ID NO: 1)
- protocol: Disaccharide production from glucose by beta-glucosidase with added divalent metal ion
- Type: biochemical, Trichoderma reesei
- conditionDescription: standing period 21 days; versus no ion added
valueKind: Increase/decrease rate (%) Sophorose

## Input Form field - read-out: Increase/decrease rate (%) Sophorose; system: β-glucosidase (SEQ ID NO: 1); submitted item: [Mn+2]
## Output 48.7

## Input Form field - read-out: Increase/decrease rate (%) Sophorose; system: β-glucosidase (SEQ ID NO: 1); submitted item: [Cu+2]
## Output 53.0

## Input Form field - read-out: Increase/decrease rate (%) Sophorose; system: β-glucosidase (SEQ ID NO: 1); submitted item: [Mg+2]
## Output 45.3

## Input Form field - read-out: Increase/decrease rate (%) Sophorose; system: β-glucosidase (SEQ ID NO: 1); submitted item: [Zn+2] [Zn^2+, zinc ion (Zn^2+)]
## Output 47.1

Values were extracted from patent US20250171484A1.
